Assign composite z-score to each entry below.
target: Torsin-1A-interacting protein 1 (Homo sapiens) (UniProt Q5JTV8); experiment: compound microarray binding of lysate hLAP1 – cell lysate, small-molecule microarray, COS7 lysate, 635/667 nm fluorescence, primary screen (AID 1116); conditions: 635 nm fluorescence, higher = more signal
Sequence (Q5JTV8 whole entry, looked up): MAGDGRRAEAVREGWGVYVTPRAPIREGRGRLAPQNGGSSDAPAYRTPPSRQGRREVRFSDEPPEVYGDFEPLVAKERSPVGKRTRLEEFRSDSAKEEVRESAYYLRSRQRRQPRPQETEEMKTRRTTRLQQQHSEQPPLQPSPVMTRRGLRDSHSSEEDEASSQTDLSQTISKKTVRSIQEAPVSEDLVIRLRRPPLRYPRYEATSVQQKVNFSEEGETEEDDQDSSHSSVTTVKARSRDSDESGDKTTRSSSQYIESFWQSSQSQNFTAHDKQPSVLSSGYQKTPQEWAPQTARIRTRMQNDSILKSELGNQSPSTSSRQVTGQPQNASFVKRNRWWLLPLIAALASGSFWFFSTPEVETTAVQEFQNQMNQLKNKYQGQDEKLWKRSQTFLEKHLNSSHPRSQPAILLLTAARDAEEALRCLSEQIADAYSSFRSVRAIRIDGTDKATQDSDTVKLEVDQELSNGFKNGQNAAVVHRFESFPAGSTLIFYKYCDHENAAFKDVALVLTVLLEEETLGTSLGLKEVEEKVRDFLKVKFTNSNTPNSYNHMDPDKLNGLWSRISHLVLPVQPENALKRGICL
Give bare numbers.

MOLECULE	composite z-score
CC(C)[Si](C#CCCCC#N)(Oc1ccccc1Br)C(C)C	0.528
C=CCN1C(=O)[C@]2(O[C@H](CCO)[C@@H]([Si](C)(C)c3ccc(OC)cc3)[C@@H]2C)c2cc(N(C=O)c3ccccc3)ccc21	0.753

Parameters: items (list). Returns: composite z-score for each item.
1. CN1C(=O)C2C=CC(C(O)c3c(F)cccc3Cl)N(NC(=O)OC(C)(C)C)C2C1=O (stereo not given)
2. COCC(=C=CC[C@@H](O)c1ccc(OCCO)cc1)C[C@@H](O)c1ccccn1
3. COC(=O)c1c2oc(c1C(=O)OC)C(=O)NC1(CCCCC1)c1cn(nn1)C[C@H](Cc1ccccc1)NC(=O)N[C@H](CO)CC2

Reply:
1. 2.03
2. 0.407
3. 0.227

----------
molecular target: Epidermal growth factor receptor (Homo sapiens); test: compounds binding epidermal growth factor receptor – biochemical, small-molecule microarray, 635 nm fluorescence, primary screen (AID 1104); details: EGFR binding, higher = more signal;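 note: score merges 667 nm emission intensity with spot signal to noise over triplicate slides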
composite z-score of 0.1 or higher: condition met. Under 0.1: condition not met.

Query: // inclusive: composite z-score at least 0.1? input: `CCCC[C@@H]1C[C@H]1[C@@H](NC(=O)c1cccnc1)c1ccc(Cl)cc1`
Reply: condition not met

Query: // inclusive: composite z-score at least 0.1? input: `CO[C@H]1O[C@H](CO)[C@@H](OC(=O)Nc2cccc(F)c2)[C@H](OC(=O)Nc2ccccc2)[C@H]1OC(=O)Nc1ccccc1`
Reply: condition met

Query: // inclusive: composite z-score at least 0.1? input: CN1CCC(CCCO)=CC1c1cccs1 (configuration not stated)
Reply: condition not met

Query: // inclusive: composite z-score at least 0.1? input: COc1ccc(C(O)C2C=CC3C(=O)N(C)C(=O)C3N2NC(=O)OC(C)(C)C)c2ccccc12 (configuration not stated)
Reply: condition met

Query: // inclusive: composite z-score at least 0.1? input: `CO[C@H]1O[C@H](CO)[C@@H](OC(=O)Nc2ccccc2)[C@@H]2OC(=O)[C@@H](Cc3ccc4ccccc4c3)C/C=C/C[C@H](Cc3ccc4ccccc4c3)C(=O)O[C@@H]12`
Reply: condition met

Query: // inclusive: composite z-score at least 0.1? input: `CCCCCCc1nc(-c2ccc(-c3ccc(Cl)c(Cl)c3)o2)c(C)c2c1[Si](C(C)C)(C(C)C)OC2`
Reply: condition not met

Query: // inclusive: composite z-score at least 0.1? input: `C=CCNC(=O)[C@@H]1[C@H]2C(=O)O[C@H](c3ccccc3)[C@H](c3ccccc3)N2[C@H](c2ccc(OCCO)cc2)[C@@]12C(=O)N(C(=O)OCCOC)c1ccc(C#CCC(C(=O)OC)C(=O)OC)cc12`
Reply: condition met

Query: // inclusive: composite z-score at least 0.1? input: `COc1ccc(-c2cc3c(c(Cc4ccccc4)n2)[Si](C(C)C)(C(C)C)OC3)cn1`
Reply: condition met

Query: // inclusive: composite z-score at least 0.1? input: OCC1C=C(/C=C/c2ccccc2)CN1Cc1ccccc1Br (configuration not stated)
Reply: condition met

Query: // inclusive: composite z-score at least 0.1? input: `O[C@@H](Cc1ccccc1)[C@@H](/C=C/C1CC1)NCc1cccc(Cl)c1`
Reply: condition not met

Query: // inclusive: composite z-score at least 0.1? input: `CN(C)CCCC[C@@H]1NC(=O)[C@H]2C[C@@H](C(=O)NCCCCCN)[C@@H](c3cccc(OCCO)c3)N2C1=O`
Reply: condition not met

Query: // inclusive: composite z-score at least 0.1? input: `[N-]=[N+]=Nc1ccccc1C[C@]1(C(=O)NCc2ccccc2)N=C(c2ccc(OCCCO)cc2)O[C@H]1c1ccccc1N=[N+]=[N-]`
Reply: condition met

Query: // inclusive: composite z-score at least 0.1? input: `O=C(NCCN1CCOCC1)[C@@H]1c2ccccc2C(=O)N(Cc2cc(C(F)(F)F)cc(C(F)(F)F)c2)[C@H]1c1ccc(CO)cc1`
Reply: condition not met

Query: // inclusive: composite z-score at least 0.1? input: `COC(=O)c1c(CC[C@@H](CO)NC(=O)NCCc2c[nH]c3ccccc23)oc(C(=O)Cc2ccccc2)c1C(=O)OC`
Reply: condition met

Query: // inclusive: composite z-score at least 0.1? input: CCC(CC)C(O)C1C=CC2C(=O)N(c3ccccc3)C(=O)C2N1Nc1ccccc1 (configuration not stated)
Reply: condition met

Query: // inclusive: composite z-score at least 0.1? input: `CC(=O)NCCCC[C@@H]1NC(=O)[C@H]2C[C@@H](C(=O)O)[C@@H](c3ccc(O)cc3)N2C1=O`
Reply: condition met

Query: // inclusive: composite z-score at least 0.1? input: `COc1ccc([Si](C)(C)[C@@H]2[C@@H](CCn3cc(CCO)nn3)O[C@]3(C(=O)N(Cc4cccc(N5C(=O)c6cccc7cccc5c67)c4)c4ccccc43)[C@H]2C)cc1`
Reply: condition not met

Query: // inclusive: composite z-score at least 0.1? input: CC1CC/C=C\[C@H]2OC34C=CCN(c5ccc6ccccc6c5)C(=O)[C@H]3N(CCO)C(=O)[C@@H]4C2C(=O)O1 (some centres not stated)
Reply: condition not met
